Measurement Target: T1, wildtype myosin regulatory light chain (WT-RLC), unlabeled recombinant (human, UniProt P10916 1-166)
T1 sequence (looked up): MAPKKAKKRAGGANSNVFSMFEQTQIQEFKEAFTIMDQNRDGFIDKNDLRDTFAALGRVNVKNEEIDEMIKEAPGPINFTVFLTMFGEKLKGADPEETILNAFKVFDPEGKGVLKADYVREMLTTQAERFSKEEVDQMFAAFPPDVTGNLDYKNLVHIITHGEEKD
Test Summary: other fluorescence titration
Recorded Endpoint: Kd

| Binder | Result |
| --- | --- |
| ERRDSLLVIQWNIRAFMGVKNWPWMKLYFKIK [RLC binding site peptide of the human β-cardiac myosin heavy chain (amino acids 805–837)] | < 500 nM |
